# studySystem: rASCT2 (Rattus norvegicus)
# Construct: expressed in transfected cells; host or cells: HEK293 (ATCC CRL-11268), transient transfection
# Sequence (D3ZJ25 whole entry): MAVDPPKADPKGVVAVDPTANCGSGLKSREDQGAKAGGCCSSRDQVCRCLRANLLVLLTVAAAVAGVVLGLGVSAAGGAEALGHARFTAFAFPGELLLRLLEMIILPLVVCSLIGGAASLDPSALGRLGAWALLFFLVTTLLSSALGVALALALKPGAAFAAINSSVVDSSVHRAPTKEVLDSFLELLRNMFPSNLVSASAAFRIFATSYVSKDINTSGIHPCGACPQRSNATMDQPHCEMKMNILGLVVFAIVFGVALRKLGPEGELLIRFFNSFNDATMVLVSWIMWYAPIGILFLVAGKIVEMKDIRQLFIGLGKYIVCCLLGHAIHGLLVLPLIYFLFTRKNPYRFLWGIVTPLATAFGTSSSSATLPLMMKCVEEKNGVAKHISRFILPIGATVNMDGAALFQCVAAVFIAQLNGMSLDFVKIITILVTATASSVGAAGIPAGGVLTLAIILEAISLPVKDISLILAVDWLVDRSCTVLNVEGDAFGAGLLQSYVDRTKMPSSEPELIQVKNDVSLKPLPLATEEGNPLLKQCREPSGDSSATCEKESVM
# procedureSummary: Electrophysiology (whole-cell current recording) of transfected HEK293 cells, rASCT2
# Type: cell-based
# particulars: apparent Ki in the absence of substrate, HEK293, mean ± SD; read-out: Ki rASCT2
Output t for records whose Ki is lower than 7 µM, f for records at or above 7 µM.

[[record]]
chemicalstructure = "O=C(O[C@@H]1CN[C@H](C(=O)O)C1)c1ccc(C(=O)c2ccccc2)cc1"
group = "t"

[[record]]
chemicalstructure = "O=C(O[C@@H]1CN[C@H](C(=O)O)C1)c1ccc(-c2ccccn2)cc1"
group = "t"

[[record]]
chemicalstructure = "O=C(O)[C@@H]1C[C@H](NCc2ccc(-c3ccccc3)cc2)CN1"
group = "f"

[[record]]
chemicalstructure = "O=C(Nc1ccc(C(=O)O[C@@H]2CN[C@H](C(=O)O)C2)cc1)c1ccccc1"
group = "t"

[[record]]
chemicalstructure = "O=C(Nc1cccc(C(=O)O[C@@H]2CN[C@H](C(=O)O)C2)c1)c1ccccc1"
group = "t"

[[record]]
chemicalstructure = "O=C(O[C@@H]1CN[C@H](C(=O)O)C1)c1ccc(OCc2ccccc2)cc1"
group = "f"

[[record]]
chemicalstructure = "O=C(Nc1ccc(CN[C@@H]2CN[C@H](C(=O)O)C2)cc1)c1ccccc1"
group = "f"

[[record]]
chemicalstructure = "N[C@H](C(=O)O)[C@H](O)COC(=O)c1ccc(-c2ccccc2)cc1"
group = "t"

[[record]]
chemicalstructure = "Cc1ccccc1-c1ccc(C(=O)O[C@@H]2CN[C@H](C(=O)O)C2)cc1"
group = "t"


====

# studySystem: rASCT2 (Rattus norvegicus)
# Construct: expressed in transfected cells; host or cells: HEK293 (ATCC CRL-11268), transient transfection
# procedureSummary: Competition experiment with alanine, rASCT2
# Format: cell-based
# particulars: 1 mM ala; second entry of the cell; read-out: Competition Expt (h/rASCT2 Ki): rASCT2 Ki
pKi: −log10 of the molar value.
Recorded pKi for the following compounds
testReadout: pKi

[[record]]
compound = "O=C(OC[C@@]1(O)CN[C@H](C(=O)O)C1)c1ccc(-c2ccc(C(F)(F)F)cc2)cc1 [SN59]"
reported = 6.82

[[record]]
compound = "O=C(OC[C@@]1(O)CN[C@H](C(=O)O)C1)c1ccc(-c2ccc(F)cc2)cc1 [SN58]"
reported = 4.89

[[record]]
compound = "O=C(OC[C@]1(O)CN[C@H](C(=O)O)C1)c1ccc(-c2ccc(F)cc2)cc1 [SN66]"
reported = 4.31


====

Recorded pKi for the following compounds
# studySystem: EAAT5 (Homo sapiens, UniProt O00341)
# Sequence (O00341 whole entry, species assumed): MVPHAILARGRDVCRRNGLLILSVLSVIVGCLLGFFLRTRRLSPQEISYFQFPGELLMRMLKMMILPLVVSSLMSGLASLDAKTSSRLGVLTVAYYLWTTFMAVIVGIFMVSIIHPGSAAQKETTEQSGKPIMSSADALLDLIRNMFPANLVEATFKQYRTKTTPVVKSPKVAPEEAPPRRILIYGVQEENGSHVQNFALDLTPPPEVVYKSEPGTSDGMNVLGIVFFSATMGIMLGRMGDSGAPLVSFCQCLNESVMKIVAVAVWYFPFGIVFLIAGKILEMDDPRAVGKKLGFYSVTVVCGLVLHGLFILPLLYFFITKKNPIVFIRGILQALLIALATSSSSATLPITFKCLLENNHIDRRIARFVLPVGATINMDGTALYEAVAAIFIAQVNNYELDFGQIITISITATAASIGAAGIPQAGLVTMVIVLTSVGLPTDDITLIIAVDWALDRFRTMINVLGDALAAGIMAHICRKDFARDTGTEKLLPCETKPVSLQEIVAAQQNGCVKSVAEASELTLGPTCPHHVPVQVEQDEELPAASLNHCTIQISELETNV
# procedureSummary: Electrophysiology specificity experiment in transfected HEK293 cells, EAAT5
# particulars: apparent Ki, HEK293, internal solution 10 mM glutamate, mean ± SD
pKi: −log10 of the molar value.
testReadout: pKi

[[record]]
chemicalstructure = "O=C(Nc1cccc(C(=O)O[C@@H]2CN[C@H](C(=O)O)C2)c1)c1ccccc1"
studysystem = "EAAT5 (Homo sapiens, UniProt O00341)"
reported = 3.25

[[record]]
chemicalstructure = "Cc1ccccc1-c1ccc(C(=O)O[C@@H]2CN[C@H](C(=O)O)C2)cc1C"
studysystem = "EAAT5 (Homo sapiens, UniProt O00341)"
reported = 5.93

[[record]]
chemicalstructure = "N[C@@H](COC(=O)c1ccc(NC(=O)c2ccccc2)cc1)C(=O)O"
studysystem = "EAAT5 (Homo sapiens, UniProt O00341)"
reported = 4.91

[[record]]
chemicalstructure = "O=C(O[C@@H]1CN[C@H](C(=O)O)C1)c1ccc(-c2ccc(C(F)(F)F)cc2)cc1"
studysystem = "EAAT5 (Homo sapiens, UniProt O00341)"
reported = 5.96

[[record]]
chemicalstructure = "O=C(O)[C@@H]1C[C@H](NCc2ccc(-c3ccccc3)cc2)CN1"
studysystem = "EAAT5 (Homo sapiens, UniProt O00341)"
reported = 5.26

[[record]]
chemicalstructure = "O=C(O[C@@H]1CN[C@H](C(=O)O)C1)c1ccc(C(=O)c2ccccc2)cc1"
studysystem = "EAAT5 (Homo sapiens, UniProt O00341)"
reported = 4.86

[[record]]
chemicalstructure = "O=C(O)[C@@H]1C[C@H](OCc2ccc(-c3ccccc3)cc2)CN1"
studysystem = "EAAT5 (Homo sapiens, UniProt O00341)"
reported = 5.85

[[record]]
chemicalstructure = "O=C(O[C@@H]1CN[C@H](C(=O)O)C1)c1ccc(-c2ccc(F)cc2)cc1"
studysystem = "EAAT5 (Homo sapiens, UniProt O00341)"
reported = 5.62

[[record]]
chemicalstructure = "Cc1ccccc1-c1ccc(C(=O)O[C@@H]2CN[C@H](C(=O)O)C2)cc1"
studysystem = "EAAT5 (Homo sapiens, UniProt O00341)"
reported = 5.60

[[record]]
chemicalstructure = "O=C(O[C@@H]1CN[C@H](C(=O)O)C1)c1ccc(-c2ccccc2)cc1"
studysystem = "EAAT5 (Homo sapiens, UniProt O00341)"
reported = 5.65

